# TEST_SUMMARY: Aqueous solubility of the compound at pH 1.2
# Format: physicochemical
READOUT_KIND: solubility

Recorded solubility of CCc1nnc(-c2ccc(-c3ccccc3)cc2)n1-c1cccc2ncccc12 , please. > 100 µM

Recorded solubility of CCc1nnc(-c2ccc(-c3ccccc3)cc2)n1-c1ccccc1F , please. 96 µM

Recorded solubility of CCc1nnc(-c2ccc(-c3ccccc3)cc2)n1-c1cccc2cnccc12 , please. > 100 µM

Recorded solubility of CCc1nnc(-c2ccc(-c3ccccc3)cc2)n1-c1cccc2ccncc12 , please. > 100 µM

Recorded solubility of CCc1nnc(-c2ccc(-c3ccccc3)cc2)n1-c1cccc2cccnc12 , please. > 100 µM

Recorded solubility of CC(C)c1nnc(-c2ccc(-c3ccccc3)cc2)n1-c1ccccc1F , please. 5 µM

* * *

# TARGET_SYSTEM: Sodium- and chloride-dependent glycine transporter 1 (Rattus norvegicus)
# Sequence (P28572 whole entry): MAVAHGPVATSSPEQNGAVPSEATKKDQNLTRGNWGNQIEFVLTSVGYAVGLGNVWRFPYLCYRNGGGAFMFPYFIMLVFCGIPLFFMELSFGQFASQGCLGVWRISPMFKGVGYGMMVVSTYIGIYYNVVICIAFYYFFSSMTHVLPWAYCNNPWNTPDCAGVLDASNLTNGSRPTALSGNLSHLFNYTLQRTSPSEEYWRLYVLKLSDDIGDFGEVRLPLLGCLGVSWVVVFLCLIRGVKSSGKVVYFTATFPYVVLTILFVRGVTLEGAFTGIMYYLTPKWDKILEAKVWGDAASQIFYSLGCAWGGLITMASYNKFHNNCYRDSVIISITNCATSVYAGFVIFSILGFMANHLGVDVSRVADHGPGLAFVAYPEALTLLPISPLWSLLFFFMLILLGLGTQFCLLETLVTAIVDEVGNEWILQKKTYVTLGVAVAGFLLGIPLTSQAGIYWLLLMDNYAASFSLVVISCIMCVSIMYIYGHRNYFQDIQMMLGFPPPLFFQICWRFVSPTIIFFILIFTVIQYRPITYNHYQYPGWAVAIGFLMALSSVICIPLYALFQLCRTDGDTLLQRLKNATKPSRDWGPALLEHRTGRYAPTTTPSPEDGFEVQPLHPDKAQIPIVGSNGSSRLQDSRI
# TEST_SUMMARY: Displacement of [3H]glycine from rat GlyT1 expressed in rat C6 cells after 30 mins by scintillation counting
Could you please report measured log10 IC50 for the items listed next?
Values reflect log10 of reported IC50 (nM).

Recorded log10 IC50 of CCc1nnc(-c2ccc(-c3ccccc3)cc2)n1-c1cccc2ccncc12 , please. 2.90

Recorded log10 IC50 of CCc1nnc(-c2ccc(-c3ccccc3)cc2)n1-c1cncc2ccccc12 , please. 3.57

Recorded log10 IC50 of CCc1nnc(-c2ccc(-c3ccccc3)cc2)n1-c1cccc2cccnc12 , please. 2.48

Recorded log10 IC50 of CCc1nnc(-c2ccc(-c3ccccc3)cc2)n1-c1cccc2[nH]ncc12 , please. 3.45

Recorded log10 IC50 of CCc1nnc(-c2ccc(-c3ccccc3)cc2)n1-c1cccc2cc[nH]c12 , please. 4.34

Recorded log10 IC50 of CCc1nnc(-c2ccc(-c3ccccc3)cc2)n1-c1nccc2ccccc12 , please. 3.15

Recorded log10 IC50 of CCc1nnc(-c2ccc(-c3ccccc3)cc2)n1-c1cccc2ncccc12 , please. 2.91
